System: Pseudomonas aeruginosa
protocol.notes: Antibiofilm activity against multidrug-resistant Pseudomonas aeruginosa assessed as inhibition of biofilm formation
Assay type: functional
Rule: MBIC of 10 µM or more gives class 1; anything lower gives class 0.

Confirm if MBIC reported for the compound NCCNc1nc(NCCN)nc(N2CC(Cc3ccccc3)N(c3nc(NCCN)nc(NCCN)n3)CC2Cc2ccccc2)n1 (stereo not given) is 10 µM or above.
class 1

Confirm if MBIC reported for the compound N=C(N)NCCCCNc1nc(NCCCCNC(=N)N)nc(N2CC(Cc3ccccc3)N(c3nc(NCCCCNC(=N)N)nc(NCCCCNC(=N)N)n3)CC2Cc2ccccc2)n1 (stereo not given) is 10 µM or above.
class 1

Confirm if MBIC reported for the compound N=C(N)NCCCNc1nc(NCCCNC(=N)N)nc(N2CC(Cc3ccccc3)N(c3nc(NCCCNC(=N)N)nc(NCCCNC(=N)N)n3)CC2Cc2ccccc2)n1 (stereo not given) is 10 µM or above.
class 1

Confirm if MBIC reported for the compound NCCN(CCN)c1nc(NCc2ccccc2)nc(N2CC(Cc3ccccc3)N(c3nc(NCc4ccccc4)nc(N(CCN)CCN)n3)CC2Cc2ccccc2)n1 (stereo not given) is 10 µM or above.
class 0
